# Test: Genotoxicity in Salmonella typhimurium TA1535 harboring pSK1002 assessed as umu gene induction at 0.125 mg/ml in absence of Sprague-Dawley rat liver S9 fraction after by SOS/umu assay relative to control
# Type: toxicity, organism-based
# Assay context: salmonella enterica subsp. enterica serovar typhimurium, read-out: FC
The following compounds are shown together with reported fold induction at 0.125 mg/ml values.

[
  {
    "Compound": "OC(CCN1CCN(C(c2ccccc2)c2ccccc2)CC1)c1ccc(F)c(F)c1 (stereo unspecified)",
    "fold induction at 0.125 mg/ml": 1.4
  },
  {
    "Compound": "O=[N+]([O-])c1ccc(N2CCN(CCC(O)c3ccc(F)c4ccccc34)CC2)cc1 (stereo unspecified)",
    "fold induction at 0.125 mg/ml": 0.6
  },
  {
    "Compound": "O=[N+]([O-])c1ccccc1N1CCN(CCC(O)c2ccc(F)c3ccccc23)CC1 (stereo unspecified)",
    "fold induction at 0.125 mg/ml": 0.5
  },
  {
    "Compound": "Oc1ccc(C(O)CCN2CC=C(c3ccc(F)cc3)CC2)cc1 (stereo unspecified)",
    "fold induction at 0.125 mg/ml": 0.5
  },
  {
    "Compound": "OC(CCN1CC=C(c2ccc(F)cc2)CC1)c1ccc2c(c1)OCO2 (stereo unspecified)",
    "fold induction at 0.125 mg/ml": 0.8
  },
  {
    "Compound": "N#Cc1ccc(C(O)CCN2CC=C(c3ccc(F)cc3)CC2)cc1 (stereo unspecified)",
    "fold induction at 0.125 mg/ml": 1.1
  }
]

###

# Test: Genotoxicity in Salmonella typhimurium TA1535 harboring pSK1002 assessed as survival at 0.125 mg/ml in presence of Sprague-Dawley rat liver S9 fraction after by SOS/umu assay relative to control
# Format: toxicity, organism-based
# Assay context: salmonella enterica subsp. enterica serovar typhimurium, read-out: Survival
viability at 0.125 mg/ml for assorted compounds

[
  {
    "Compound": "OC(CCN1CCN(c2ccccc2C(F)(F)F)CC1)c1ccc(F)cc1 (stereo not given)",
    "viability at 0.125 mg/ml (%)": 21.3
  },
  {
    "Compound": "OC(CCN1CCN(c2ccc(F)cc2)CC1)c1ccc(F)c2ccccc12 (stereo not given)",
    "viability at 0.125 mg/ml (%)": 59.6
  },
  {
    "Compound": "OC(CCN1CCN(C(c2ccccc2)c2ccccc2)CC1)c1ccc(F)c(F)c1 (stereo not given)",
    "viability at 0.125 mg/ml (%)": 117
  },
  {
    "Compound": "O=[N+]([O-])c1ccccc1N1CCN(CCC(O)c2ccc(F)c3ccccc23)CC1 (stereo not given)",
    "viability at 0.125 mg/ml (%)": 76.2
  },
  {
    "Compound": "N#Cc1ccc(N2CCC(NCCC(O)c3ccc(F)c4ccccc34)CC2)c(Cl)c1 (stereo not given)",
    "viability at 0.125 mg/ml (%)": 134
  },
  {
    "Compound": "COc1ccccc1C1=CCN(CCC(O)c2ccc(F)c3ccccc23)CC1 (stereo not given)",
    "viability at 0.125 mg/ml (%)": 79.1
  },
  {
    "Compound": "COc1ccccc1C1=CCN(CCC(O)c2ccc(F)cc2)CC1 (stereo not given)",
    "viability at 0.125 mg/ml (%)": 88.5
  },
  {
    "Compound": "N#Cc1ccc(C(O)CCN2CC=C(c3ccc(F)cc3)CC2)cc1 (stereo not given)",
    "viability at 0.125 mg/ml (%)": 108
  },
  {
    "Compound": "N#Cc1ccc(N2CCC(NCCC(O)c3ccc(F)c4ccccc34)CC2)c(C(F)(F)F)c1 (stereo in doubt; 72)",
    "viability at 0.125 mg/ml (%)": 91
  },
  {
    "Compound": "OC(CCN1CC=C(c2ccc(F)cc2)CC1)c1ccc2c(c1)OCO2 (stereo not given)",
    "viability at 0.125 mg/ml (%)": 99.6
  }
]

###

# Test: Genotoxicity in Salmonella typhimurium TA1535 harboring pSK1002 assessed as survival at 0.0005 mg/ml in presence of Sprague-Dawley rat liver S9 fraction after by SOS/umu assay relative to control
# Assay type: toxicity, organism-based
# Assay context: salmonella enterica subsp. enterica serovar typhimurium, read-out: Survival

[
  {
    "Compound": "OC(CCN1CCN(C(c2ccccc2)c2ccccc2)CC1)c1ccc(F)cc1 (stereo not given)",
    "Result unit": "%",
    "viability at 0.0005 mg/ml": 86.4
  },
  {
    "Compound": "OC(CCN1CCN(C(c2ccccc2)c2ccccc2)CC1)c1ccc(F)c(Cl)c1 (stereo not given)",
    "Result unit": "%",
    "viability at 0.0005 mg/ml": 97.7
  },
  {
    "Compound": "OC(CCN1CCN(C(c2ccccc2)c2ccccc2)CC1)c1ccc(F)c(F)c1 (stereo not given)",
    "Result unit": "%",
    "viability at 0.0005 mg/ml": 94.7
  },
  {
    "Compound": "OC(CCN1CCN(C(c2ccccc2)c2ccccc2)CC1)c1ccc(Br)cc1 (stereo not given)",
    "Result unit": "%",
    "viability at 0.0005 mg/ml": 104
  },
  {
    "Compound": "OC(CCN1CCN(C(c2ccccc2)c2ccccc2)CC1)c1ccc(Cl)cc1 (stereo not given)",
    "Result unit": "%",
    "viability at 0.0005 mg/ml": 94.3
  }
]

###

# Test: Genotoxicity in Salmonella typhimurium TA1535 harboring pSK1002 assessed as umu gene induction at 0.002 mg/ml in absence of Sprague-Dawley rat liver S9 fraction after by SOS/umu assay relative to control
# Type: toxicity, organism-based
# Assay context: salmonella enterica subsp. enterica serovar typhimurium, read-out: FC
fold induction at 0.002 mg/ml less than 1 is fulfilled; fold induction at 0.002 mg/ml greater than or equal to 1 is not fulfilled.

[
  {
    "Molecule": "COc1ccccc1C1=CCN(CCC(O)c2ccc(F)cc2)CC1 (stereo not drawn)",
    "Qualitative label": "not fulfilled"
  },
  {
    "Molecule": "N#Cc1ccc(N2CCC(NCCC(O)c3ccc(F)c4ccccc34)CC2)c(Br)c1 (stereo not drawn)",
    "Qualitative label": "not fulfilled"
  },
  {
    "Molecule": "Nc1ccc(N2CCC(NCCC(O)c3ccc(F)c4ccccc34)CC2)c(C(F)(F)F)c1 (stereo not drawn)",
    "Qualitative label": "fulfilled"
  },
  {
    "Molecule": "OC(CCN1CCN(c2ccc(F)cc2)CC1)c1ccc(F)c2ccccc12 (stereo not drawn)",
    "Qualitative label": "fulfilled"
  },
  {
    "Molecule": "COc1ccccc1C1=CCN(CCC(O)c2ccc(F)c3ccccc23)CC1 (stereo not drawn)",
    "Qualitative label": "fulfilled"
  },
  {
    "Molecule": "OC(CCN1CC=C(c2ccc(F)cc2)CC1)c1ccc2c(c1)OCO2 (stereo not drawn)",
    "Qualitative label": "fulfilled"
  },
  {
    "Molecule": "OC(CCN1CCN(C(c2ccccc2)c2ccccc2)CC1)c1ccc(F)cc1 (stereo not drawn)",
    "Qualitative label": "not fulfilled"
  },
  {
    "Molecule": "COC(=O)c1ccc(C(O)CCN2CC=C(c3ccc(F)cc3)CC2)cc1 (stereo not drawn)",
    "Qualitative label": "fulfilled"
  },
  {
    "Molecule": "N#Cc1ccc(N2CCC(NCCC(O)c3ccc(F)c4ccccc34)CC2)c(C(F)(F)F)c1 (stereo in doubt; 72)",
    "Qualitative label": "not fulfilled"
  },
  {
    "Molecule": "OC(CCN1CCN(C(c2ccccc2)c2ccccc2)CC1)c1ccc(Br)cc1 (stereo not drawn)",
    "Qualitative label": "not fulfilled"
  },
  {
    "Molecule": "N#Cc1ccc(C(O)CCN2CC=C(c3ccc(F)cc3)CC2)cc1 (stereo not drawn)",
    "Qualitative label": "fulfilled"
  },
  {
    "Molecule": "COc1ccccc1N1CCN(CCC(O)c2ccc(F)c3ccccc23)CC1 (stereo not drawn)",
    "Qualitative label": "not fulfilled"
  },
  {
    "Molecule": "OC(CCN1CCN(C(c2ccccc2)c2ccccc2)CC1)c1ccc(F)c2ccccc12 (stereo not drawn)",
    "Qualitative label": "fulfilled"
  },
  {
    "Molecule": "O=[N+]([O-])c1ccc(N2CCN(CCC(O)c3ccc(F)c4ccccc34)CC2)cc1 (stereo not drawn)",
    "Qualitative label": "fulfilled"
  },
  {
    "Molecule": "OC(CCN1CCN(c2ccccc2C(F)(F)F)CC1)c1ccc(F)cc1 (stereo not drawn)",
    "Qualitative label": "fulfilled"
  },
  {
    "Molecule": "OC(CCN1CCN(C(c2ccccc2)c2ccccc2)CC1)c1ccc(F)c(F)c1 (stereo not drawn)",
    "Qualitative label": "fulfilled"
  },
  {
    "Molecule": "OC(CCN1CCN(c2ccccc2C(F)(F)F)CC1)c1ccc(F)c2ccccc12 (stereo in doubt; 55)",
    "Qualitative label": "fulfilled"
  },
  {
    "Molecule": "O=[N+]([O-])c1ccccc1N1CCN(CCC(O)c2ccc(F)c3ccccc23)CC1 (stereo not drawn)",
    "Qualitative label": "fulfilled"
  }
]
